Listing of recorded growth by entry.
System: MDA-MB-435 melanoma
Test: NCI-60 one-dose screen, 48 h (100 = growth as untreated, 0 = no growth, -100 = all killed)
Details: 10 µM unless noted
Compounds without any hit were thinned out: in the full panel of roughly 83,000, 20% have a hit. Calls of active or inactive are those of the source. The calls were made as follows: active = growth percent below 10; inactive = the rest.

These solved cases illustrate the format of a correct answer.
NCCCCn1c(SCCc2c[nH]c3ccccc23)nnc1-c1ccc2ccccc2n1    -75% (active)
O=C1NC(=S)/C(=C/c2cn(-c3ccccc3)nc2-c2ccccc2)S1    24.6% (inactive)

query: Recall the reported growth of O=C(N=Nc1c(O)[nH]c2ccc(Cl)cc12)c1ccc2nc(-c3ccc(Cl)cc3)[nH]c2c1 on MDA-MB-435 melanoma and write it down.
result: -32.9% (active)

query: Quote growth with test system MDA-MB-435 melanoma for CCOC(=O)/C(F)=C/C1CC1C1CCN(C(=O)OC(C)(C)C)CC1 (configuration not stated)
result: 105% (inactive)

query: Write down the reported growth (system: MDA-MB-435 melanoma) of COc1ccc2[nH]c(O)c(N=Nc3nc(-c4ccccc4)cs3)c2c1
result: 39.7% (inactive)

query: Report growth from MDA-MB-435 melanoma testing of COc1ccc2[nH]cc(-c3cc(N)n4nc(-c5c[nH]c6ccccc56)cc4n3)c2c1
result: -79% (active)

query: Provide growth, recorded with MDA-MB-435 melanoma, of COc1ccc(SC2c3cc(OC)ccc3Oc3nc(N)c(C#N)c(N)c32)cc1 (configuration not stated)
result: 87.5% (inactive)

====

Test system: 786-0 renal
Assay: NCI-60 one-dose screen, 48 h
Details: 10 µM unless noted
Compounds without any hit were thinned out: in the full panel of roughly 83,000, 20% have a hit. Activity calls are given as the source filed them. Rule for the calls: active = growth percent below 10; inactive = the rest.
A correct response names exactly one class from T for active, F for inactive

Cc1ccc(C(=O)Nc2cc(-n3ccnc3C)cc(C(F)(F)F)c2)cc1C#Cc1cnc2cccnn12    T

query: Each molecule tested received a call. Report the one for Cc1ccc(C2CC(c3ccc(NC(=O)Nc4ccccc4)cc3)=NN2c2ccc(S(N)(=O)=O)cc2)cc1 (centres undefined) .
result: T

query: Please indicate how the test categorized O=C(c1ccc(O)cc1)C1[C@H](c2ccc(Cl)cc2)[C@@H](c2ccccc2)NC12C(=O)Nc1ccccc12 (some centres undefined) .
result: T

query: Which outcome did this test record for the molecule COc1ccc(-c2nc3ccccc3n2CC(=O)N=Nc2c(O)[nH]c3ccc(Br)cc23)cc1 ?
result: F

query: What outcome does the record of this test show for O=C(NNC(=S)NC(=O)c1ccccc1)c1ccc(OCc2nc3ccc(Cl)cc3[nH]2)cc1 ?
result: T

====

Tested on: UACC-62 melanoma
Assay: NCI-60 one-dose screen, 48 h
Settings: 10 µM unless noted
Compounds without any hit were thinned out: in the full panel of roughly 83,000, 20% have a hit. Calls of active or inactive are those of the source. The calls were made as follows: active = growth percent below 10; inactive = the rest.
Please reply with one of these outcomes: T for active, F for inactive

The following compounds have reported results that may help.
COc1ccc([C@H]2C(C(=O)c3ccc(Cl)cc3)C3(N[C@@H]2c2ccccc2)C(=O)Nc2ccccc23)cc1 (stereo partly drawn)    T
C/C(=N\Nc1ccc(S(N)(=O)=O)cc1)c1cnn(-c2cc(=O)[nH]c3ccc(Br)cc23)c1C    F
O=C(NNC(=S)NC(=O)c1ccccc1)c1ccc(OCc2nc3ccc(Cl)cc3[nH]2)cc1    T
CCCCC[C@@H]1C/C=C(\C)[C@@H](O)C(C)(C)C(=O)[C@@H](C)/C=C(\C)[C@@H]2C[C@H](O)C[C@](O)(CC(=O)O1)O2    F
CC1CCc2c(sc3nc(SCC(=O)c4cccc(Br)c4)n(-c4ccccc4)c(=O)c23)C1 (stereo not drawn)    F
O=C1Nc2cc(-c3ccc(NS(=O)(=O)c4ccc([N+](=O)[O-])cc4)cc3)ccc2/C1=C/c1ccc[nH]1    T

query: What was the test verdict on O=c1ccc(Cn2c(C(F)(F)F)cc3c(Cl)ncnc32)c[nH]1 ?
result: F

query: Each compound tested received a call. Report the one for Cn1cc(-c2cc3nc(-c4cn(C)c5ncccc45)cc(N)n3n2)c2cc(F)ccc21 .
result: F

query: Which outcome was entered for the compound C=CCn1c(O)c(N=Nc2nc(-c3cc4ccccc4oc3=O)cs2)c2ccccc21 in this test?
result: F

query: Assay result, entry CCCSc1nnc(-c2sc3nc4ccccc4n3c2C)o1 — outcome?
result: F

query: Assay outcome for Nc1nn2c(-c3cc4cc(Br)ccc4oc3=O)ccnc2c1N=Nc1ccccc1 : what was it?
result: F

query: Could you please tell me the result logged for COc1ccc2[nH]c(O)c(N=Nc3nc(-c4ccc(Br)cc4)cs3)c2c1 in this assay?
result: F

query: Answer briefly: the call reported for c1ccc(CSc2nnc(-c3ccc4nc(-c5ccccc5)[nH]c4c3)o2)cc1 in this assay.
result: T

query: Answer briefly: the call reported for CC[C@]12C=CCN3CC[C@@]4(c5ccc(OC)cc5N(C)[C@H]4[C@@](O)(C(=O)OC)[C@@H]1OC(=O)CCCC[P+](c1ccc(F)cc1)(c1ccc(F)cc1)c1ccc(F)cc1)[C@@H]32 in this assay.
result: T

query: I'd appreciate the recorded outcome for C[C@@H]1CN(c2ccc3ncc(C#Cc4cncc(C(=O)Nc5ccc(CN6CCN(C)CC6)c(C(F)(F)F)c5)c4)n3n2)C[C@@H](C)O1 from this test.
result: T

query: Hi, do you know how CN1C(=O)C(O)(CC(=O)c2cc3ccccc3oc2=O)c2ccccc21 (stereo not drawn) came out in this test?
result: F

query: For this compound, state the assay outcome: CC1=C(C(=O)OC(C)C)C(c2ccc(O)cc2)NC(=O)N1 (stereo not drawn)
result: F

query: Recorded test outcome, item COc1cc(CNC(=O)C[C@H](C)CCC=C(C)C)ccc1OCc1cn(-c2cccc(C(F)(F)F)c2)nn1
result: F
